Biological target: T1, ΔCRD4-TNFR2 protein (with CRD4 deletion), on CHO-S cells (human, UniProt P20333 23-461)
T1 construct: also called CHO-SΔCRD4-TNFR2; TNFR2 lacking CRD4
T1 sequence: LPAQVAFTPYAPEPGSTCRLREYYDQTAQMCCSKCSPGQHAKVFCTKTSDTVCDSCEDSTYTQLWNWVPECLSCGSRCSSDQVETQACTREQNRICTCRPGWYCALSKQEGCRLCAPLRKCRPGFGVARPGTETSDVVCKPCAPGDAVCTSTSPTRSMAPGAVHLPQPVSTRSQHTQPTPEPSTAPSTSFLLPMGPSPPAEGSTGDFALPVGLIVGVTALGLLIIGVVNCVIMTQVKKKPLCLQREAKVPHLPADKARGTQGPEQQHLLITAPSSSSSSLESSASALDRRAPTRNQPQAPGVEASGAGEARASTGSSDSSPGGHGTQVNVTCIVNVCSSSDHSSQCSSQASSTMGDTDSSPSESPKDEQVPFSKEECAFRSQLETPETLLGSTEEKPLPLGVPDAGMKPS
Test: FACS on CHO-S cells with ΔCRD4-TNFR2, AF647 anti-human IgG Fc secondary
Description: TNFR2 has four cysteine rich domains (CRD). In another experiment, FACS was used to detect the binding of anti-hTNFR2 antibodies to TNFR2 proteins with different structural domains. […] The fluorescence-labeled secondary antibody can attach to the Fc region of the anti-hTNFR2 antibodies so that the anti-hTNFR2 antibodies that are bound to the ΔCRD cells can be detected by FACS. […]
measuredParameter: positive rate of binding (% of cells) (%)

{"binder": "BC-1B6-IgG1-LALA (antibody, V domains shown) VH: QVQLVESGGGVVQPGRSLRLSCAASGFTFSNFGMHWVRQAPGKGLEWVAVIWYEGSDKYYADSVKGRFTISRDNSKNTLYLQMNSLRAEDTAVYYCARDSSWGFLLYGMDVWGQGTTVTVSS VL: DVVMTQSPLSLPVTLGQPASISCRSSRSLEYSDGNTYLNWFQQRPGQSPRRLIYKVSNRDSGVPDRFSGSGSGTAFTLKISGVEAEDVGVYYCMQGTHWPPTFGGGTKVEIK", "measuredParameter": "positive rate of binding (% of cells)", "experimentalValue": 0.83}
{"binder": "BC-1F4-IgG1 (antibody, V domains shown, Human VH/VL joined to the human IgG1 subtype) VH: QVQLQQSGPGLVKPSQTLSLTCAISGDSVSSDSSAWNWIRQSPSRGLEWLGRTYYRSKWYNDYTVSVKSRITINPDTSKNQFSLQLNSVTPEDTAVYYCAREDGVGGTKDYFDYWGQGTLVTVSS VL: DIQMTQSPSSLSASVGDRVTITCQASQDISNYLNWYQQKPGKAPKLLIYDASNLETGVPSRFSGSGSGTDFTFTINSLQPEDFATYFCQQYDNLPITFGQGTRLEIK", "measuredParameter": "positive rate of binding (% of cells)", "experimentalValue": 21.3}
{"binder": "BC-1A8-IgG1 (antibody, V domains shown, Fully human VH/VL joined to the human IgG1 subtype, kappa light chain (RenMab mice)) VH: QVQLQQSGPGLVKPSQTLSLTCAISGDSVSSNSAAWNWIRQSPSRGLEWLGRTYYRSKWYNDYALSVKSRITINPETSKNQFSLQLNSVTPEDTAVYYCAREDGVGGTKDYFDYWGQGTLVTVSS VL: DIQMTQSPSSLSASVGDRVTITCQASQDIDNYLNWYQQKPGKAPKLLIYDVSNLEIGVPSRFSGSGSGTDFTFTISSLQPEDIATYYCQQYDNLPLTFGQGTRLEIK", "measuredParameter": "positive rate of binding (% of cells)", "experimentalValue": 29.4}
{"binder": "BC-1C3-IgG1 (antibody, V domains shown, Human VH/VL joined to the human IgG1 subtype) VH: QVQLVESGGGVVHPGKSLRLSCAASGFTFNIYGMHWVRQAPGKGLEWVALISYDGNDKYFADSVKGRFTISRDNSKNTLYLQMNSLRAEDTAVYYCAKAVDTAVVTFFDYWGQGTLVTVSS VL: EIVMTQSPVTLSVSPGERATLSCRASQSVSSNLAWYQQKPGQAPRLLIYSASTRATGIPARFSGSGSGTEFTLTISSLQSEDLAVYYCQQYSNWPFTFGPGTKVDIK", "measuredParameter": "positive rate of binding (% of cells)", "experimentalValue": 1.85}
